Reported growth values are given for each entry in this list.
Tested on: OVCAR-4 ovarian
Assay: NCI-60 one-dose screen, 48 h (100 = growth as untreated, 0 = no growth, -100 = all killed)
Conditions: 10 µM unless noted
Experimental: Growth inhibition of the OVCAR-4 human tumor cell line is measured as a screen for anti-cancer activity. Cells are grown in 96 well plates and exposed to the test compound for 48 hours. Compounds are tested at a single concentration, which is 10^-5 M for most compounds. The reported endpoint is percent growth (GI% or GIPRCNT), where numbers from 0 - 100% represent growth inhibition, and numbers from -100% - 0 represent cell death. For example, a value of 40 represents 60% growth inhibition. […]
The panel holds about 83,000 compounds, 20% with a hit somewhere; the sample as a whole holds those more often.
Just the number please, in %, no unit attached.

Below, each entry is followed by its recorded growth result.
molecule: CC1(C)CC[C@]23CC[C@]4(C)[C@H](CC[C@@H]5[C@@]6(C)CCNCC(C)(C)[C@@H]6CC[C@]54C)[C@H]2[C@H]1OC3
assayed-system: OVCAR-4 ovarian
growth (%): 99.8
//
molecule: Cc1cccc(NC(=O)Cn2cc(CN3CCN(c4ccnc5cc(Cl)ccc45)CC3)nn2)c1
assayed-system: OVCAR-4 ovarian
growth (%): 78.1
//
molecule: O=C(Nc1nc(Cl)nc(Nc2ccc(N3CCOCC3=O)cc2)n1)c1ccc(Cl)s1
assayed-system: OVCAR-4 ovarian
growth (%): 102
//
molecule: c1cc(OCCN2CCCCCC2)ccc1CNc1ccc2nc(CCC3CCCCC3)[nH]c2c1
assayed-system: OVCAR-4 ovarian
growth (%): 51.4
//
molecule: COc1ccc(/C=C(/C(=O)N2CCNCC2)c2cc(OC)c(OC)c(OC)c2)cc1O
assayed-system: OVCAR-4 ovarian
growth (%): 78.7
//
molecule: COc1ccc(C(=O)Nc2ncc(Cc3ccc(Cl)cc3)s2)cc1
assayed-system: OVCAR-4 ovarian
growth (%): 49.1
//
molecule: O=C1C=CC2(O)OC/C(=C\c3ccccc3)C(O)=C2C1=O (centres undefined)
assayed-system: OVCAR-4 ovarian
growth (%): 30.4
//
molecule: COCCn1cc(-c2nc(-c3c[nH]c4ncccc34)cs2)c2ccccc21
assayed-system: OVCAR-4 ovarian
growth (%): 15.2
//
molecule: CC1SC(c2ccccc2O)N(NC(=O)CCC(=O)c2nc3ncccc3[nH]2)C1=O (centres undefined)
assayed-system: OVCAR-4 ovarian
growth (%): 92.8
//
molecule: CC1(C)CC[C@]23CC[C@]4(C)[C@H](CC[C@@H]5[C@@]6(C)C/C(=C/O)C(=O)C(C)(C)[C@@H]6CC[C@]54C)[C@H]2[C@H]1OC3
assayed-system: OVCAR-4 ovarian
growth (%): 111

Asked: Given the molecule `Cc1cccc(NC(=O)N/C(N)=N/c2nc3ccccc3s2)c1` , what is its reported growth?
Given back: 56.9

Asked: Given the molecule OC1(c2ccccc2)c2ccccc2N(c2ccccc2)c2ccc(Cl)cc21 (centres undefined) , what is its reported growth?
Given back: -82.8

Asked: Given the molecule `CN(C)CCCn1c2c(c3ccncc3c1=O)C(=O)c1ccccc1-2` , what is its reported growth?
Given back: -8.01

Asked: Given the molecule `CSc1nc2ccc(C)cc2cc1/C=C1/C=C(c2ccccc2)NC1=O` , what is its reported growth?
Given back: -51.9

Asked: Given the molecule C=C(C)[C@@H]1CC[C@]2(COC3CCCCO3)CC[C@]3(C)[C@H](CC[C@@H]4[C@@]5(C)C=C(C=O)C(=O)C(C)(C)[C@@H]5CC[C@]43C)[C@@H]12 (some centres undefined) , what is its reported growth?
Given back: -34.7

Asked: Given the molecule `Cc1c(C(C)(C)O)cn2ncnc(Oc3ccc(NC(=O)Nc4ccc(Cl)c(C(F)(F)F)c4)c(F)c3)c12` , what is its reported growth?
Given back: 37.5

Asked: Given the molecule CS(=O)/C(C#N)=C\C=C\c1cccc(Cl)c1 (centres undefined) , what is its reported growth?
Given back: 34.7

Asked: Given the molecule `CN(C)CCC(CCN(C)C)(C(=O)O)c1ccccc1` , what is its reported growth?
Given back: 105

Asked: Given the molecule `Cc1ccc2c(c1)=C/C(=C\c1cc(-c3ccccc3)[nH]c1O)C(=O)N=2` , what is its reported growth?
Given back: 59.7

###

Tested on: SK-MEL-2 melanoma
Assay: NCI-60 one-dose screen, 48 h
Conditions: 10 µM unless noted
Description: Growth inhibition of the SK-MEL-2 human tumor cell line is measured as a screen for anti-cancer activity. Cells are grown in 96 well plates and exposed to the test compound for 48 hours. Compounds are tested at a single concentration, which is 10^-5 M for most compounds. The reported endpoint is percent growth (GI% or GIPRCNT), where numbers from 0 - 100% represent growth inhibition, and numbers from -100% - 0 represent cell death. For example, a value of 40 represents 60% growth inhibition. […]
The panel holds about 83,000 compounds, 20% with a hit somewhere; the sample as a whole holds those more often. Active and inactive are the calls of the source. How the source made its calls: active means growth percent below 10; inactive means the rest.
Hi there, use one of these labels in your reply, thanks! Y = active, N = inactive

compound: CN1CCN(Cc2ccc(NC(=O)c3cncc(C#Cc4cnc(N)cc4C#N)c3)cc2C(F)(F)F)CC1
group-label: Y
//
compound: O=C(O)c1cn(C2CC2)c2cc(N3CCN(C(=O)N/N=C/c4cccc5ccccc45)CC3)c(F)cc2c1=O
group-label: N

Asked: What is the recorded call for this compound in the test? `CCN(CC)CCN1C(=O)c2c(c3c4ccccc4[nH]c3c3ccc4ccccc4c23)C1=O`
Given back: N

Asked: What is the recorded call for this compound in the test? `Nc1nc2ccccc2c2c(=O)c3cc(Cl)ccc3sc12`
Given back: N

###

test system: MALME-3M melanoma; assay: NCI-60 one-dose screen, 48 h; details: 10 µM unless noted
The panel holds about 83,000 compounds, 20% with a hit somewhere; the sample as a whole holds those more often. Activity calls are given as the source filed them. The calls were made as follows: active = growth percent below 10; inactive = the rest.
Hi there, use one of these labels in your reply, thanks! y (active), n (inactive)

Take a look at these entries with their results.
molecule: c1ccc(-c2nc3ccccc3[nH]2)c(OCCCCCOc2ccccc2-c2nc3ccccc3[nH]2)c1
group-label: n

molecule: ClCCn1cnc2c(SCc3ccccc3)ncnc21
group-label: n

molecule: COC12C=C/C(=C(/C(=O)OCCSc3ccnn3C)C(=O)CCCCCCCCC3(OC)C=C/C(=C(/C(=O)OCCSc4ccnn4C)C(=O)CCCCCCCC1)O3)O2
group-label: y

Asked: What is the recorded call for this molecule in the test? `Clc1ccc(-c2cc(-c3ccccc3)nc(N3CCN(CCCNc4ccnc5cc(Cl)ccc45)CC3)n2)cc1`
Given back: y

Asked: What is the recorded call for this molecule in the test? COc1ccccc1S(=O)(=O)Nc1ccc2c3c(cc(CCC(=O)NCCCCNc4cccc5c4C(=O)N(C4CCC(=O)NC4=O)C5=O)cc13)C(=O)N2C (centres undefined)
Given back: y

Asked: What is the recorded call for this molecule in the test? `COc1nc(/C=C\Nc2ccc3c(c2)OCCOCCOCCOCCO3)nc(OC)n1`
Given back: n

Asked: What is the recorded call for this molecule in the test? `C#Cc1cccc(Nc2ncnc3cc(NC(=O)CCl)ccc23)c1`
Given back: y

Asked: What is the recorded call for this molecule in the test? `C=C(c1ccc(C(=O)O)c(F)c1)c1cc2c(cc1C)C(C)(C)CCC2(C)C`
Given back: n

Asked: What is the recorded call for this molecule in the test? `O=S(=O)(NCCNc1nccc(-c2c(-c3ccc(F)c(O)c3)nc3sccn23)n1)c1ccc(Cl)cc1`
Given back: n

###

tested on: PC-3 prostate; assay: NCI-60 one-dose screen, 48 h (100 = growth as untreated, 0 = no growth, -100 = all killed); settings: 10 µM unless noted
About 83,000 compounds went through this panel and 20% of them were active in at least one assay; those are over-represented in the sample as a whole.
Label rule, in plain words: growth of 40% and up is Met, under 40% is Not met.

Asked: Is growth for `CN(C)CCC(CCN(C)C)(C(=O)O)c1ccccc1` at or above 40%?
Given back: Met

Asked: Is growth for COc1ccc(C2CC(c3ccccc3)=NN2C(=O)c2cc(OC)c(OC)c(OC)c2)cc1O (stereo unspecified) at or above 40%?
Given back: Not met

Asked: Is growth for `COc1ccc(C(=O)C/C(=C\c2ccc(O)c(OC)c2)C(=O)NN)cc1` at or above 40%?
Given back: Met

Asked: Is growth for `Clc1ccc(-c2cc(-c3ccccc3)nc(N3CCN(CCCNc4ccnc5cc(Cl)ccc45)CC3)n2)cc1` at or above 40%?
Given back: Met

Asked: Is growth for `COC(=O)[C@]1(C)CCC[C@]2(C)[C@H]3C[C@@H]4[C@H]5[C@@H]6CC/C(=N\OCC/C(N)=N/O)[C@H]5[C@@]3(CC[C@H]21)CC4(C(C)C)O6` at or above 40%?
Given back: Met
